Catalogue of IC50 values
# Test system: Type III-dependent secretion of ExoU by P. aeruginosa PA103
# Experiment notes: Tertiary assay: Type III-dependent secretion of ExoU by P. aeruginosa PA103
# Assay type: cell-based
# Test parameters: Pseudomonas aeruginosa, ExoU secreted into extracellular medium
Endpoint label: IC50 (µM)

Molecule	Endpoint label	Output unit	Reported result
O=C(N[C@H](Cc1ccc(Cl)cc1)C(=O)O)/C(=C\c1cccc(C(F)(F)F)c1)NC(=O)c1ccc(-c2ccccc2)cc1 [Compound 39]	IC50	µM	17
O=C(N[C@@H](CSCc1ccccc1)C(=O)O)/C(=C\c1ccc(Cl)c(Cl)c1)NC(=O)c1ccc(C(F)(F)F)cc1 [Compound 140]	IC50	µM	48
O=C(N[C@H](CSCc1ccccc1)C(=O)O)/C(=C\c1ccc(-c2ccccc2)cc1)NC(=O)c1ccc(C(F)(F)F)cc1 [Compound 6]	IC50	µM	47
